The entries below come with measured GI50 values attached.
- Test system: HOP-92 NSCLC
- ASSAY COMMENT: NCI tumour cell line growth inhibition, 48 h

- MOLECULE: "COc1ccc(OC)c(/C=C/C(=O)c2ccc(SC)cc2)c1"
  OBSERVED RESULT: "6000 nM"
- MOLECULE: "Cc1cccc(Cc2cnc(NC(=O)/C=C/c3ccco3)s2)c1"
  OBSERVED RESULT: "8500 nM"
- MOLECULE: "CCOC(=O)Nc1ccc2nc(Sc3ccc(Cl)cc3)sc2c1"
  OBSERVED RESULT: "7980 nM"

Task item: Supply GI50 value. Item: CCCCOc1nc2ccccc2cc1C1CNC(=O)c2ccccc2N1 (stereo not given)
Reply: 4570 nM

Task item: Report GI50, nothing else, for this molecule: CN1CCN(Cc2ccc(NC(=O)c3cncc(C#Cc4cncc5[nH]ncc45)c3)cc2C(F)(F)F)CC1
Reply: 156 nM

Task item: For CCn1c(-c2nonc2N)nc2c(C#CC(C)(C)O)ncc(OCC3CCNCC3)c21 , write its GI50.
Reply: > 25000 nM

Task item: Given COc1ccc(Nc2ccnc3cc(Cl)ccc23)cc1CN(CCCl)CCCl , respond with its GI50.
Reply: 1170 nM

Task item: Answer with the recorded GI50 for the molecule listed here: c1cc[c]([Sn]([O]c2cccc3cccnc23)([c]2ccccc2)[c]2ccccc2)cc1
Reply: 17.2 nM

Task item: Please indicate GI50 recorded for O=C1c2ccccc2-c2c1c1ccccc1c(=O)n2CCCNCCO
Reply: 357 nM

###

- Tested on: EKVX NSCLC
- ASSAY COMMENT: NCI tumour cell line growth inhibition, 48 h; in the data active = GI50 below about 0.43 µM; inactive = the rest
Returns: one label drawn from active, inactive

- MOLECULE: "CCn1c(-c2nonc2N)nc2c(C#CC(C)(C)O)ncc(OCC3CCNCC3)c21"
  DISCRETE LABEL: "inactive"
- MOLECULE: "CN1CCN(Cc2ccc(NC(=O)c3cncc(C#Cc4cncc5[nH]ncc45)c3)cc2C(F)(F)F)CC1"
  DISCRETE LABEL: "inactive"

Task item: Just curious, what result did NC(=S)c1cn(C2OC(CO)C(O)C2O)c2ncnc(N)c12 (stereo not drawn) get here?
Reply: active

###

- Tested on: RXF 393 renal
- ASSAY COMMENT: NCI tumour cell line growth inhibition, 48 h
Classify as follows. Reported TGI greater than or equal to 10 µM: true. Reported TGI below: false.

- MOLECULE: "NS(=O)(=O)c1ccc(NS(=O)(=O)c2ccc(NC(=O)N(c3ccccc3)c3ccccc3)cc2)cc1"
  DISCRETE LABEL: "true"

Task item: Is TGI for BrCC[N+]12CCCN1CCC2 at or above 10 µM?
Reply: true

Task item: Check if TGI >= 10 µM (inclusive). Item: Nc1nc(Cl)cc(NCC2CC(O)(CO)C2)n1 (stereo not given)
Reply: true

Task item: Identify whether the reported TGI of the following molecule is 10 µM or greater: S=C1NC2=C(CCOc3c2ccc2ccccc32)C(c2ccc(Cl)cc2)N1 (stereo not given)
Reply: true

Task item: Please check the record CCC1C(=O)OCc2c1cc1n(c2=O)Cc2ccccc2-1 (stereo not given) and state if its TGI is at or above 10 µM.
Reply: true

Task item: Can COc1ccc2c(-c3csc(-c4c[nH]c5ccccc45)n3)c[nH]c2c1 be said to have TGI at or above 10 µM?
Reply: true

Task item: In plain terms: is recorded TGI at least 10 µM for C[C@@H]1CC[C@H]2C(CN(C)CC3=C(C(F)(F)F)O[C@@H]4O[C@@]5(C)CC[C@H]6[C@H](C)CC[C@@H]3[C@@]46OO5)=C(C(F)(F)F)O[C@@H]3O[C@@]4(C)CC[C@@H]1[C@]32OO4 ?
Reply: true

Task item: Does Nc1ccc(Sc2ccc3c4c2cccc4c(=O)n2c4ccccc4nc32)cc1 have a reported TGI of at least 10 µM?
Reply: true

Task item: Entry COc1cc(C2CC(c3cc(Cl)c(C)cc3O)=NN2c2ccc(S(N)(=O)=O)cc2)cc(OC)c1OC (stereo not given) : is its TGI no less than 10 µM?
Reply: false

Task item: Reported TGI at or above 10 µM? COc1ccc(C2CCc3c(cnc4nc(N)nc(N)c34)C2)cc1 (stereo not given)
Reply: true

Task item: Record c1ccc(C2C3=C(CCCC3)Nc3nnnn32)cc1 (stereo not given) ; criterion: TGI no lower than 10 µM. Met?
Reply: true

Task item: Record O=C(CN1CCN(c2cc3c(cc2F)c(=O)c(C(=O)O)cn3C2CC2)CC1)Nc1ccc(C(=O)/C=C/c2ccccc2)cc1 ; criterion: TGI no lower than 10 µM. Met?
Reply: true

Task item: Kindly determine if TGI recorded for C/C(=N/NC(=O)c1ccccc1Nc1ccccc1C(=O)N/N=C(\C)c1ccc(C)cc1)c1ccc(C)cc1 is above or exactly 10 µM.
Reply: true

Task item: For this molecule, is measured TGI 10 µM or higher? CCN(CC)c1ccc(/C=C2/NC(=O)NC2=O)cc1
Reply: true

Task item: Please tell me: is the molecule O=C1NC(=Nc2ccccc2Cl)SC1C(=O)Nc1ccc([N+](=O)[O-])cc1[N+](=O)[O-] (stereo not given) at or over 10 µM in terms of TGI?
Reply: true

Task item: Dear colleague, could you confirm whether COc1cc2cc(Oc3ccc(NC(=O)Nc4cc(C(F)(F)F)cc(C(F)(F)F)c4)cc3)c(C)nc2cc1OCCN1CCCCC1 has TGI at or above 10 µM?
Reply: false

Task item: Tell me whether TGI is at least 10 µM here: CC1CCCc2c(CC3CC(=O)NC(=O)C3)nc(N)nc21 (stereo not given)
Reply: true

Task item: Test whether the molecule O=C1/C(=C/Cc2ccco2)N=C(c2ccccc2)N1c1nc2c(Cl)cc(Cl)cc2s1 records TGI of 10 µM or higher.
Reply: true

Task item: Could you verify whether the entry CC(=O)OCC12C(OC(C)=O)C[C@@H](C)C3(CC(c4ccoc4)OC3=O)C1CCC(OC(C)=O)C21CO1 (stereo not given in full) shows TGI of no less than 10 µM?
Reply: true

The measurements presented in this section are drawn from PubChem BioAssay (NCI).
